# assay.summary: Cytotoxicity against mouse L929 cells incubated for 48 hrs by MTT assay
# Assay type: toxicity, cell-based
reported.endpoint: IC50 at 48 h (µg/mL)
Answers are plain numbers, in µg/mL.

| smiles.code | reported.endpoint | reported |
| --- | --- | --- |
| CC1CCN(c2cc(/C=C/c3ccc(N(C)C)cc3)c3ccccc3[n+]2C)CC1.[I-] | IC50 at 48 h | 11.3 |

As a next step, examine the compound that follows.
Please give the measured IC50 at 48 h for this compound: "CC1CCN(c2cc(/C=C/c3ccc(N(C)C)cc3)[n+](C)c3ccccc23)CC1.[I-]" 12.8

* * *

Provide the recorded log10 MIC for the entries that follow.
# Test system: Staphylococcus aureus
# assay.summary: Antibacterial activity against methicillin-resistant Staphylococcus aureus ATCC 33592 assessed as inhibition of bacterial growth incubated for 20 to 24 hrs by broth micro dilution method
# Format: functional
# stated.conditions: time 20-24 hrs
The base-10 logarithm of MIC, taken with MIC in mg/L, is what appears here.

Give log10 MIC for each listed item.
1. CCCCCNc1cc(/C=C/c2ccc(N(C)C)cc2)[n+](C)c2ccccc12.[I-]
2. CN(C)c1ccc(/C=C/c2cc(NCCCO)c3ccccc3[n+]2C)cc1.[I-]
3. CCCCCNc1cc(/C=C/c2ccc(N(C)C)cc2)c2ccccc2[n+]1C.[I-]
4. CC1CCN(c2cc(/C=C/c3ccc(N(C)C)cc3)c3ccccc3[n+]2C)CC1.[I-]

[0.30, 1.51, 0.90, 0.60]

* * *

# assay.summary: Ratio of MBC for bactericidal activity against Bacillus subtilis CMCC (B) 63501 to MIC for antibacterial activity against Bacillus subtilis CMCC (B) 63501
# Type: functional
reported.endpoint: Ratio
One number for each entry.

These recorded examples may help you get a feel for the data.
| smiles.code | reported |
| --- | --- |
| CC1CCN(c2cc(/C=C/c3ccc(N(C)C)cc3)c3ccccc3[n+]2C)CC1.[I-] | 2 |
| CC1CCN(c2cc(/C=C/c3ccc(N(C)C)cc3)[n+](C)c3ccccc23)CC1.[I-] | 1 |
| CN(C)c1ccc(/C=C/c2cc(N3CCCCC3)c3ccccc3[n+]2C)cc1.[I-] | 2 |

Pending compound:
Find the recorded Ratio belonging to "CCCCCNc1cc(/C=C/c2ccc(N(C)C)cc2)[n+](C)c2ccccc12.[I-]" and report it. 1

* * *

# assay.summary: Ratio of MBC for bactericidal activity against Enterococcus faecium ATCC 700221 to MIC for antibacterial activity against Enterococcus faecium ATCC 700221
# Type: functional
reported.endpoint: Ratio
Give bare numbers.

Recorded Ratio, per entry:
| smiles.code | Ratio |
| --- | --- |
| CN(C)c1ccc(/C=C/c2cc(N3CCCCC3)c3ccccc3[n+]2C)cc1.[I-] | 4 |
| CCCCCNc1cc(/C=C/c2ccc(N(C)C)cc2)[n+](C)c2ccccc12.[I-] | 2 |
| CC1CCN(c2cc(/C=C/c3ccc(N(C)C)cc3)[n+](C)c3ccccc23)CC1.[I-] | 4 |

Continue with the compound presented below.
# Ratio lookup, item "CC1CCN(c2cc(/C=C/c3ccc(N(C)C)cc3)c3ccccc3[n+]2C)CC1.[I-]" 4

* * *

# Test system: Escherichia coli
# assay.summary: Antibacterial activity against Escherichia coli ATCC 25922 assessed as inhibition of bacterial growth incubated for 20 to 24 hrs by broth micro dilution method
# Format: functional
# stated.conditions: time 20-24 hrs
Lab note: compare MIC with 20 µg/mL, writing met if less and not met if equal or more.

| smiles.code | label.class |
| --- | --- |
| CN(C)c1ccc(/C=C/c2cc(NCCCc3ccccc3)[n+](C)c3ccccc23)cc1.[I-] | not met |
| CN(C)c1ccc(/C=C/c2cc(NCCCO)c3ccccc3[n+]2C)cc1.[I-] | not met |
| CCCCCNc1cc(/C=C/c2ccc(N(C)C)cc2)[n+](C)c2ccccc12.[I-] | not met |

In plain terms, does "CCCCNc1cc(/C=C/c2ccc(N(C)C)cc2)c2ccccc2[n+]1C.[I-]" come in under 20 µg/mL for MIC? not met

is_below(MIC, 20 µg/mL) for "CC1CCN(c2cc(/C=C/c3ccc(N(C)C)cc3)c3ccccc3[n+]2C)CC1.[I-]" ? not met

Quick check: does "CN(C)c1ccc(/C=C/c2cc(N3CCCCC3)c3ccccc3[n+]2C)cc1.[I-]" have MIC under 20 µg/mL? met

Determine whether this compound shows MIC lower than 20 µg/mL (ties excluded): "CN[C@H](CC(C)C)C(=O)N[C@H]1C(=O)N[C@@H](CC(N)=O)C(=O)N[C@H]2C(=O)N[C@H]3C(=O)N[C@H](C(=O)N[C@H](C(=O)O)c4cc(O)cc(O)c4-c4cc3ccc4O)[C@H](O)c3ccc(c(Cl)c3)Oc3cc2cc(c3O[C@@H]2O[C@H](CO)[C@@H](O)[C@H](O)[C@H]2O[C@H]2C[C@](C)(N)[C@H](O)[C@H](C)O2)Oc2ccc(cc2Cl)[C@H]1O" not met

Given "CN(C)c1ccc(/C=C/c2cc(NCCCc3ccccc3)c3ccccc3[n+]2C)cc1.[I-]" , is recorded MIC strictly lower than 20 µg/mL? not met
